- runDescription: solvent given as SMILES
- runConditions: in CO
# if measured fluorescence lifetime < 1 ns: 1 (yes)  # else: 0 (no)

O=C1c2ccccc2-c2ccc(N3CCN(c4ccccc4)CC3)c3cccc1c23 : 1 (yes)

Inquiry: Hello, I'm reviewing records and need to know if fluorescence lifetime of COc1c2ccccc2c(OC)c2c1c1cc(Cl)ccc1n2C is below 1 ns. Could you check?
Reply text: 0 (no)

Inquiry: Hello, I'm reviewing records and need to know if fluorescence lifetime of COc1ccc2c3c(OC)c4ccccc4c(OC)c3n(C)c2c1 is below 1 ns. Could you check?
Reply text: 0 (no)

* * *

- runDescription: solvent given as SMILES
- runConditions: in O
Listed here are compounds together with their documented log10 fluorescence lifetime.
Units before log transform: ns; reported quantity: fluorescence lifetime; transform: log10.

Example entries and their recorded answers appear below.
Nc1ccc2[nH]ncc2c1 : 1.10
CC[N+](CC)=c1ccc2c(-c3ccccc3C(=O)O)c3c(=O)oc4c5c6c(cc4c3oc-2c1)CCCN6CCC5 : -0.80
CCOC(=O)c1c(CSc2ccccc2)n(C)c2cc(Br)c(O)c(CN(C)C)c12 : 0.48
O=C1/C(=C2\Sc3ccc(S(=O)(=O)O)cc3C2=O)Sc2ccc(S(=O)(=O)O)cc21 : -0.89
CCC(=O)c1ccc2cc(N(C)C)ccc2c1 : 0.32

Inquiry: Input CC[n+]1nc2cc3c4c(c2c2cc(F)ccc21)CCCN4CCC3 , output reported log10 fluorescence lifetime.
Reply text: 0.64

Inquiry: Input CC1(C)C(/C=C/C=C/C=C/C=C2/N(CCCCS(=O)(=O)[O-])c3ccc4ccccc4c3C2(C)C)=[N+](CCCCS(=O)(=O)[O-])c2ccc3ccccc3c21 , output reported log10 fluorescence lifetime.
Reply text: -0.77
